These entries and their values trace back to paper PMC8537897.

system: MCF7 breast cancer cell line; assay: Cell metabolic activity / viability (MTT assay) on MCF7; assay type: cell-based, human; conditions: MCF7, 500 µM, 24 h;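 further: MTT optical density read-out in human MCF7 cells, normalised to DMSO vehicle-treated cells as 100%, with IC50 derived from fitted concentration–response curves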
METRIC: Viability (% of control) - 24 h

For record O=[N+]([O-])c1cccc(S(=O)(=O)Oc2ccc(/C=C/c3ccccc3)cc2)c1 [1b] the listed Viability (% of control) - 24 h is 35.83 ± 2.22 % of control

For record Oc1ccc(/C=C/c2cc(O)cc(O)c2)cc1 [RSV, trans-3,4′,5-trihydroxystilbene, reference compound] the listed Viability (% of control) - 24 h is 34.30 ± 5.01 % of control

For record Cc1ccc(S(=O)(=O)Oc2ccc(/C=C/c3ccccc3)cc2)cc1[N+](=O)[O-] [1c] the listed Viability (% of control) - 24 h is 34.30 ± 1.43 % of control

For record O=S(=O)(Cc1ccccc1)Oc1ccc(/C=C/c2ccccc2)cc1 [1j] the listed Viability (% of control) - 24 h is 38.88 ± 5.23 % of control
